viability overview
assay: SK-BR-3 cell growth inhibitors, pilot screen, 24 h, human (AID 572); conditions: SK-BR-3 viability, CellTiter-Glo luminescence, at 10 µM, hits give low values;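 further: compound exposure lasted between 18 and 24 h rather than exactly 24 h; 100% = carrier-treated control wells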
Calls of active or inactive are those of the source.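 How the source made its calls: active means viability at or below 10% of carrier control in both of two separate runs; inconclusive means viability at or below 10% in only one of the two runs; inactive means the rest.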

In the examples that follow, each entry is paired with its recorded viability.
COCC(=O)N(C)c1nnc(-c2ccccn2)s1    83% (inactive)
C[C@]12CC[C@@H]3c4ccc(OC(=O)c5ccccc5)cc4CC[C@H]3[C@@H]1CC[C@@H]2O    78% (inactive)
Oc1c(Cl)cc(Cl)c2c1NCCC2    71.5% (inactive)
OCCN1CCN(CCCN2c3ccccc3Sc3ccc(C(F)(F)F)cc32)CC1    3% (active)
CC(C)n1c(NCc2c[nH]c3ccccc23)nc2ccccc21    91% (inactive)

// moving on: another record for viability
Item O=C(CSc1nnc(C2COc3ccccc3O2)o1)N1CCCc2ccccc21 (stereo unspecified) has what recorded viability?
85.5% (inactive)
